Where do the numbers come from? From paper PMC10984466.

molecular target: PfThrRS (Plasmodium falciparum, UniProt Q8IIA4); construct: made in house; host or cells: E. coli BL21(DE3); test: In vitro PfThrRS inhibition assay (aminoacylation activity, ATP consumption by Kinase-Glo luminescence); format: biochemical; conditions: PfThrRS inhibitors, Fig 4 and text
Sequence (Q8IIA4 21-1013): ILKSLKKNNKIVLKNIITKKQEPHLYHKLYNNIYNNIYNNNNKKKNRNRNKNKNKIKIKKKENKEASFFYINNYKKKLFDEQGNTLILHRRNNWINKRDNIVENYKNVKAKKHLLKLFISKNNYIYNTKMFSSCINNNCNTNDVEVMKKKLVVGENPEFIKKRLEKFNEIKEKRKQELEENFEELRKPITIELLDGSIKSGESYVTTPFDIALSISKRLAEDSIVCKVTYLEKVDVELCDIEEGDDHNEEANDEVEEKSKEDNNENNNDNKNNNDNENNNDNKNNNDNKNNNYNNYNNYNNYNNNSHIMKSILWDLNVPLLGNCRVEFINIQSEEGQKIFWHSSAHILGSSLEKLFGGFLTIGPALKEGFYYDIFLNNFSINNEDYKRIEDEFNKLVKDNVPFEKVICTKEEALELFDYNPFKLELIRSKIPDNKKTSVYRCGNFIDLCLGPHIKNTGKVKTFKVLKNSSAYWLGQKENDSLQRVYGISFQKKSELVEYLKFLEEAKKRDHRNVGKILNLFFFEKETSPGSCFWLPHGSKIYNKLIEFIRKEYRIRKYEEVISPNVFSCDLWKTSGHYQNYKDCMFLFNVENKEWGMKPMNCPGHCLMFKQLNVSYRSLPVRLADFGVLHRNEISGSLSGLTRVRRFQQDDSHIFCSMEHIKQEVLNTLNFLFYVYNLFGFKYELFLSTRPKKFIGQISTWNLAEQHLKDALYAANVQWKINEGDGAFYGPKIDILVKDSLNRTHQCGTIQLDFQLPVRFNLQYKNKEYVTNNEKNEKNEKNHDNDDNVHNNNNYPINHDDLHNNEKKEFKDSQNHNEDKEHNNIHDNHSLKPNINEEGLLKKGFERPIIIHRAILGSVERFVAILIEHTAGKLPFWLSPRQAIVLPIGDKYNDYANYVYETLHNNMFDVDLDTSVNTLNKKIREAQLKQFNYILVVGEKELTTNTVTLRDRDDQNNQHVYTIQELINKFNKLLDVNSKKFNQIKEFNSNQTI
Please provide measured LE (ligand efficiency) for the entries that follow.
One number for each entry.

Study these solved cases before continuing.
[ask] Let me know recorded LE (ligand efficiency) for O=C(O)CCc1nc2c(O)nc(SCc3ccccc3F)[nH]c-2nc1=O , thanks.
[reply] 0.27

[ask] Let me know recorded LE (ligand efficiency) for Cc1csc2ncc(C(=O)N[C@H]3Cc4ccc(C(=O)O)cc4C3)n12 , thanks.
[reply] 0.25

[ask] Let me know recorded LE (ligand efficiency) for Cc1c(C(=O)O)nnn1-c1sc2c(c1C(=O)O)CCCC2 , thanks.
[reply] 0.33

[ask] Let me know recorded LE (ligand efficiency) for O=C(c1ccn(-c2ccc(F)cc2)n1)N1CCC(O)(C(=O)O)C1 (centres unmarked) , thanks.
[reply] 0.29

[ask] Let me know recorded LE (ligand efficiency) for Cc1nc2cc(NC(=O)C3C4C=CC(C4)C3C(=O)O)ccc2o1 (centres unmarked) , thanks.
[reply] 0.27

Would you mind listing LE (ligand efficiency) for each of the following compounds?
1. O=C(O)c1cc(C2CCN(C(=O)C[C@H]3CCCCO3)CC2)no1
2. CCCCC[C@H](O)CC[C@@H]1[C@H]2Cc3cccc(OCC(=O)O)c3C[C@H]2C[C@H]1O [compound 15, Remodulin, reference compound]
3. O=C(O)CCS(=O)(=O)c1ccc2c(c1)OCCCO2

[reply]
1. 0.26
2. 0.25
3. 0.30
